Recorded EC50 by entry
# System: 280 human cancer cell lines
# TEST DETAILS: OncoPanel cell proliferation assay (10-day)
# Type: cell-based
# EXPERIMENTAL PARAMETERS: Homo sapiens, CAKI-2, Caki-2, Kidney; read-out: Cell Count EC50
QUANTITY NAME: EC50 (µM)

compound="CC(C)=CCC[C@H](CO)[C@@H]1CC[C@@H](C)c2c1cc(C)c(O)c2O [Compound 1, 7,8,18-trihydroxyserrulat-14-ene]" system_name="280 human cancer cell lines" unit_annotation=µM recorded_result=4.38
compound="CC(C)=CCC[C@@H]1C(O)Oc2c(C)cc(O)c3c2[C@H]1CC[C@H]3C (stereo partly drawn)" system_name="280 human cancer cell lines" unit_annotation=µM recorded_result=28.8
compound="CC(C)=CCC[C@H](C)[C@@H]1CC[C@@H](C)c2c1cc(C)c(O)c2O [Compound 4, 7,8-dihydroxyserrulat-14-ene]" system_name="280 human cancer cell lines" unit_annotation=µM recorded_result=13.1

----------
# SYSTEM NAME: CYP1A (Homo sapiens, UniProt P05177)
# Sequence (P05177 whole entry): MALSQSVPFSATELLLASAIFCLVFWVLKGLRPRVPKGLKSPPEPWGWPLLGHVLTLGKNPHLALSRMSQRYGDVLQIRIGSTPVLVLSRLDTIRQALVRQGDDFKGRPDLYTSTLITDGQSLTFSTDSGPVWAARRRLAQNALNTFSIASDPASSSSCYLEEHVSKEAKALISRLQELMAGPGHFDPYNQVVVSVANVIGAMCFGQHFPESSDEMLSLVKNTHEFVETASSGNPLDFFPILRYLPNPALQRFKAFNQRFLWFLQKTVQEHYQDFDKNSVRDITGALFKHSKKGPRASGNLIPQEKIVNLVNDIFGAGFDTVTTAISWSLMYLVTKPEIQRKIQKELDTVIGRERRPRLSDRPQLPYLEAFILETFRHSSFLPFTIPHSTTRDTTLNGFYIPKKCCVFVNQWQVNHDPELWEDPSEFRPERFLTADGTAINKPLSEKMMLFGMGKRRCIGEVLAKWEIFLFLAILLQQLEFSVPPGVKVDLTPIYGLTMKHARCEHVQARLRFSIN
# TEST DETAILS: Cytochrome P450 Inhibition (CYP panel)
# Type: in vitro ADME
# EXPERIMENTAL PARAMETERS: probe phenacetin; CYP1A (phenacetin sub.); Human liver microsomes; 1 μM; read-out: % Inhibition of Control Values
molecules and their reported inhibition at 1 µM
QUANTITY NAME: inhibition at 1 µM (%)

molecule="CC(C)=CCC[C@H](C)[C@@H]1CC[C@@H](C)c2c1cc(C)c(O)c2O [Compound 4, 7,8-dihydroxyserrulat-14-ene]" recorded_result=14
molecule="CC(C)=CCC[C@H](CO)[C@@H]1CC[C@@H](C)c2c1cc(C)c(O)c2O [Compound 1, 7,8,18-trihydroxyserrulat-14-ene]" recorded_result=28
molecule="CC(C)=CCC[C@@H]1C(O)Oc2c(C)cc(O)c3c2[C@H]1CC[C@H]3C (stereo partly drawn)" recorded_result=38

----------
# Test system: 280 human cancer cell lines
# TEST DETAILS: OncoPanel cell proliferation assay (10-day)
# Assay type: cell-based
# EXPERIMENTAL PARAMETERS: Homo sapiens, SU-DHL-4, SU-DHL-4, Lymphoma; read-out: Cell Count EC50
QUANTITY NAME: EC50 (µM)

compound="CC(C)=CCC[C@H](C)[C@@H]1CC[C@@H](C)c2c1cc(C)c(O)c2O [Compound 4, 7,8-dihydroxyserrulat-14-ene]" unit_annotation=µM recorded_result=5.74
compound="CC(C)=CCC[C@@H]1C(O)Oc2c(C)cc(O)c3c2[C@H]1CC[C@H]3C (stereo partly drawn)" unit_annotation=µM recorded_result=4.2
compound="CC(C)=CCC[C@H](CO)[C@@H]1CC[C@@H](C)c2c1cc(C)c(O)c2O [Compound 1, 7,8,18-trihydroxyserrulat-14-ene]" unit_annotation=µM recorded_result=2.01

----------
# SYSTEM NAME: EHMT1 (h) (Homo sapiens)
# Sequence (Q9H9B1 whole entry): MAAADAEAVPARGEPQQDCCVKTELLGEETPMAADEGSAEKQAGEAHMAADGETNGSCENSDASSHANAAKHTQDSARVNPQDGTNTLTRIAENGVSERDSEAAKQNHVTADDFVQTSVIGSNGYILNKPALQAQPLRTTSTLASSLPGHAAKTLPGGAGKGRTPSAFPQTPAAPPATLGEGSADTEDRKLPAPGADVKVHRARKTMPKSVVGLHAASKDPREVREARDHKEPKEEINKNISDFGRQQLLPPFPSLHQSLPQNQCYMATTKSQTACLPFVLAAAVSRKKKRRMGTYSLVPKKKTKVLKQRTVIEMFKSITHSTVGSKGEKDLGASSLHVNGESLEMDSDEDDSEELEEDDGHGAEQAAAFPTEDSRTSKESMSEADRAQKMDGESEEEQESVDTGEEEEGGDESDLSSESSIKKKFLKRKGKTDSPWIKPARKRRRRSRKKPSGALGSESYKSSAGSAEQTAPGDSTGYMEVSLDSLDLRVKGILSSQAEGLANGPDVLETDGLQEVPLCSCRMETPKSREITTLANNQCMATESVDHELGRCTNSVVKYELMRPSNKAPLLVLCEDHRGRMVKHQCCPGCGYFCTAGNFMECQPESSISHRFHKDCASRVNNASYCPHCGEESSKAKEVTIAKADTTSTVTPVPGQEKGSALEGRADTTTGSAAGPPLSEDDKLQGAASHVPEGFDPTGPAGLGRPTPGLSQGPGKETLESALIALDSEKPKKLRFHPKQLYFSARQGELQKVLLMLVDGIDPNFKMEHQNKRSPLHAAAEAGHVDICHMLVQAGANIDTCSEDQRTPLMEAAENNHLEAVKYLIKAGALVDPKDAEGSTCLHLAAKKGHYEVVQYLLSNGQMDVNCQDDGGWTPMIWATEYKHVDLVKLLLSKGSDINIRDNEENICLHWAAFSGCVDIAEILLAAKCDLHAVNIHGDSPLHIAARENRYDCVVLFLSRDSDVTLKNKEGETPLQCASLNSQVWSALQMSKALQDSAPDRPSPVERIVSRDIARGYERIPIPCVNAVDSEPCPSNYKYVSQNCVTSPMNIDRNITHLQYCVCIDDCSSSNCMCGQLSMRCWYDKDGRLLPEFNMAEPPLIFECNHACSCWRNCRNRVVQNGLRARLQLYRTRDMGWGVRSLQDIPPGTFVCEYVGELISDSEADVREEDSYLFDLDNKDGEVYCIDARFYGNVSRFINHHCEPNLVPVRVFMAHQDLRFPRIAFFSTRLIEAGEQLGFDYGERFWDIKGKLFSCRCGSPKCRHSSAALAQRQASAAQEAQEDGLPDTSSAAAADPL
# TEST DETAILS: Epigenetic enzyme assay, Methyltransferases (MTs)
# Assay type: biochemical
# EXPERIMENTAL PARAMETERS: read-out: Reference IC50
pIC50: −log10 of the molar value.
QUANTITY NAME: pIC50

line_notation=Nc1ncnc2c1ncn2[C@@H]1O[C@H](CSCC[C@H](N)C(=O)O)[C@@H](O)[C@H]1O quantity_name=pIC50 recorded_result=6.74

----------
# Tested on: 280 human cancer cell lines
# TEST DETAILS: OncoPanel cell proliferation assay (10-day)
# Format: cell-based
# EXPERIMENTAL PARAMETERS: Homo sapiens, SW948, SW948, Colon; read-out: Cell Count IC50
QUANTITY NAME: IC50 (µM)

compound="CC(C)=CCC[C@@H]1C(O)Oc2c(C)cc(O)c3c2[C@H]1CC[C@H]3C (stereo partly drawn) [Compound 2, 5,18-epoxyserrulat-14-en-8,18-diol]" quantity_name=IC50 censoring_qualifier== recorded_result=14.7
compound="CC(C)=CCC[C@H](CO)[C@@H]1CC[C@@H](C)c2c1cc(C)c(O)c2O [Compound 1, 7,8,18-trihydroxyserrulat-14-ene]" quantity_name=IC50 censoring_qualifier== recorded_result=2.21
compound="CC(C)=CCC[C@H](C)[C@@H]1CC[C@@H](C)c2c1cc(C)c(O)c2O [Compound 4, 7,8-dihydroxyserrulat-14-ene]" quantity_name=IC50 censoring_qualifier=> recorded_result=30

----------
# System: 280 human cancer cell lines
# TEST DETAILS: OncoPanel cell proliferation assay (10-day)
# Assay type: cell-based
# EXPERIMENTAL PARAMETERS: Homo sapiens, MDA-MB-231, MDA MB 231, Breast; read-out: Cell Count EC50
QUANTITY NAME: EC50 (µM)

molecule="CC(C)=CCC[C@H](CO)[C@@H]1CC[C@@H](C)c2c1cc(C)c(O)c2O [Compound 1, 7,8,18-trihydroxyserrulat-14-ene]" recorded_result=1.47
molecule="CC(C)=CCC[C@H](C)[C@@H]1CC[C@@H](C)c2c1cc(C)c(O)c2O [Compound 4, 7,8-dihydroxyserrulat-14-ene]" recorded_result=11.4
molecule="CC(C)=CCC[C@@H]1C(O)Oc2c(C)cc(O)c3c2[C@H]1CC[C@H]3C (stereo partly drawn) [Compound 2, 5,18-epoxyserrulat-14-en-8,18-diol]" recorded_result=4.39

----------
Catalogue of pIC50 values
# System: 280 human cancer cell lines
# TEST DETAILS: OncoPanel cell proliferation assay (10-day)
# Format: cell-based
# EXPERIMENTAL PARAMETERS: Homo sapiens, D341 Med, CNS - Medulloblastoma; read-out: Cell Count IC50
pIC50: −log10 of the molar value.
QUANTITY NAME: pIC50

compound="CC(C)=CCC[C@@H]1C(O)Oc2c(C)cc(O)c3c2[C@H]1CC[C@H]3C (stereo partly drawn) [Compound 2, 5,18-epoxyserrulat-14-en-8,18-diol]" recorded_result=4.72
compound="CC(C)=CCC[C@H](CO)[C@@H]1CC[C@@H](C)c2c1cc(C)c(O)c2O [Compound 1, 7,8,18-trihydroxyserrulat-14-ene]" recorded_result=5.02
compound="CC(C)=CCC[C@H](C)[C@@H]1CC[C@@H](C)c2c1cc(C)c(O)c2O [Compound 4, 7,8-dihydroxyserrulat-14-ene]" recorded_result=5.07

----------
# SYSTEM NAME: CYP2D6 (Homo sapiens)
# Sequence (P10635 whole entry): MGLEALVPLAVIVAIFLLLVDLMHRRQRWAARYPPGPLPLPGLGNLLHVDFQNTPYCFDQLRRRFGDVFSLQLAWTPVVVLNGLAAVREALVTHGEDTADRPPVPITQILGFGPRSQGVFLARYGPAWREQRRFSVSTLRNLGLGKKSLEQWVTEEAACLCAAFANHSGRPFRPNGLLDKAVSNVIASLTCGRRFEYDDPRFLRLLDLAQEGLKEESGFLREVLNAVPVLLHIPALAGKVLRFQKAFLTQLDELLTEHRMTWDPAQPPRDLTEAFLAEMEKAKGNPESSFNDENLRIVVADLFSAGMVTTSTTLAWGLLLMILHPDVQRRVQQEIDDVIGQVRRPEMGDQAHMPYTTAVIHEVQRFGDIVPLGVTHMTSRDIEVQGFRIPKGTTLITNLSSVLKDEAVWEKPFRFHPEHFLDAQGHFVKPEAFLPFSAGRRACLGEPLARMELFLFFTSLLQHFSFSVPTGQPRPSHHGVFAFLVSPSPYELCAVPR
# TEST DETAILS: in vitro
# EXPERIMENTAL PARAMETERS: human liver microsomes, probe dextromethorphan
Attribute: inhibition at 1 µM
QUANTITY NAME: inhibition at 1 µM

compound="CC(C)=CCC[C@@H]1C(O)Oc2c(C)cc(O)c3c2[C@H]1CC[C@H]3C (stereo partly drawn) [Compound 2, 5,18-epoxyserrulat-14-en-8,18-diol]" recorded_result="12 to 21%"
compound="CC(C)=CCC[C@H](C)[C@@H]1CC[C@@H](C)c2c1cc(C)c(O)c2O [Compound 4, 7,8-dihydroxyserrulat-14-ene]" recorded_result="12 to 21%"
compound="CC(C)=CCC[C@H](CO)[C@@H]1CC[C@@H](C)c2c1cc(C)c(O)c2O [Compound 1, 7,8,18-trihydroxyserrulat-14-ene]" recorded_result="12 to 21%"

----------
# Tested on: 280 human cancer cell lines
# TEST DETAILS: OncoPanel cell proliferation assay (10-day)
# Type: cell-based
# EXPERIMENTAL PARAMETERS: Homo sapiens, JIYOYE, Lymphoma; read-out: Cell Count IC50
QUANTITY NAME: IC50 (µM)

molecule="CC(C)=CCC[C@H](C)[C@@H]1CC[C@@H](C)c2c1cc(C)c(O)c2O [Compound 4, 7,8-dihydroxyserrulat-14-ene]" unit_annotation=µM recorded_result=3.55
molecule="CC(C)=CCC[C@@H]1C(O)Oc2c(C)cc(O)c3c2[C@H]1CC[C@H]3C (stereo partly drawn)" unit_annotation=µM recorded_result=17.8
molecule="CC(C)=CCC[C@H](CO)[C@@H]1CC[C@@H](C)c2c1cc(C)c(O)c2O [Compound 1, 7,8,18-trihydroxyserrulat-14-ene]" unit_annotation=µM recorded_result=5.88

----------
# Test system: 280 human cancer cell lines
# TEST DETAILS: OncoPanel cell proliferation assay (10-day)
# Format: cell-based
# EXPERIMENTAL PARAMETERS: Homo sapiens, U-118-MG, U-118 MG, CNS - Glioma; read-out: Cell Count IC50
QUANTITY NAME: IC50 (µM)

compound="CC(C)=CCC[C@H](C)[C@@H]1CC[C@@H](C)c2c1cc(C)c(O)c2O [Compound 4, 7,8-dihydroxyserrulat-14-ene]" system_name="280 human cancer cell lines" recorded_result=13.9
compound="CC(C)=CCC[C@@H]1C(O)Oc2c(C)cc(O)c3c2[C@H]1CC[C@H]3C (stereo partly drawn)" system_name="280 human cancer cell lines" recorded_result=29.6
compound="CC(C)=CCC[C@H](CO)[C@@H]1CC[C@@H](C)c2c1cc(C)c(O)c2O [Compound 1, 7,8,18-trihydroxyserrulat-14-ene]" system_name="280 human cancer cell lines" recorded_result=4.58
